Assayed Target: recombinant human Meningioma Expressed Antigen 5 (MGEA5), also referred to as O-GlcNAcase (OGA) (Homo sapiens)
Construct: Full length OGA enzyme was purchased at OriGene (cat # TP322411); purchased OriGene TP322411
Experimental Details: OGA biochemical assay: inhibition of FM-GlcNAc hydrolysis, fluorescence; protocol A (10 nM OGA, 1 h) or protocol B (2 nM OGA, 6 h)
Measurement Parameters: Enzymatic protocol B (2 nM OGA, 6 h)
Reported Endpoint: Emax (%)

INSERT INTO measurements (compound, reading_unit, assay_result) VALUES
  ('CC(=O)Nc1ncc(CN2C[C@@H](F)C[C@@H](COc3cc(C)nc(C)n3)C2)s1 (racemic) [compound 164]', '%', 94),
  ('Cc1cc(C[C@H]2CCCN(Cc3ccc4c(c3)OCO4)C2)cc(C)n1 [compound 146]', '%', 93.5),
  ('CC(=O)Nc1ncc(CN2CC[C@H](Cc3ccnc(C)c3C)C2)s1 [compound 72]', '%', 102),
  ('CC(=O)Nc1ncc(CN2CCC(Cc3cncc(C)n3)C2)s1 (stereo not drawn) [compound 108]', '%', 103),
  ('CC(=O)Nc1ncc(CN2CCC(Cc3ncccc3F)C2)s1 (stereo not drawn) [compound 39]', '%', 99.2),
  ('Cc1cc(C[C@H]2CCN(C(C)c3ccc4c(c3)OCO4)C2)cc(C)n1 (mixture of isomers) [compound 93]', '%', 98.4),
  ('CC(=O)Nc1ncc(CN2CCCC(c3cc(C)nc(C)c3)C2)s1 (single isomer, unassigned) [compound 130]', '%', 103),
  ('CC(=O)Nc1ncc(S(=O)(=O)N2CCC[C@H](Cc3cc(C)nc(C)c3)C2)s1 [compound 33]', '%', 99.9),
  ('CC(=O)Nc1ncc(CN2CCC(F)C(COc3cc(C)nc(C)n3)C2)s1 (stereo not drawn) [compound 163]', '%', 101),
  ('CC(=O)Nc1ncc(CN2CC[C@@H](Cc3cc(C)nc(F)c3)C2)s1 [compound 111]', '%', 103);

I. Cc1cc(CC2CCCN(C(C)c3ccc4scnc4c3)C2)cc(C)n1 (racemic) [compound 148]
II. CC(=O)Nc1ncc(S(=O)(=O)N2CCC(c3ccnc(C)c3)C2)s1 (stereo not drawn) [compound 3]
Incoming: Given I and II , report the one with the higher recorded Emax. Please indicate the selected item by its label.
Outgoing: I

* * *

Reported Endpoint: melting point (°C)

INSERT INTO assay_data (compound, reported_endpoint, assay_result) VALUES
  ('CC(=O)Nc1ncc(CN2CCC(Cc3cncnc3C)C2)s1 (racemic)', 'melting point', 147.16);

P. CC(=O)Nc1ncc(CN2CCC(OCc3cc(C)nc(C)c3)C2)s1 (racemic)
Q. CC(=O)Nc1ncc(CN2CCC(Cc3ccc(F)c(C)n3)C2)s1 (stereo not drawn)
Incoming: Looking at recorded values for melting point, does P or Q come in lower? Please indicate the selected item by its label.
Outgoing: P

* * *

Assayed Target: recombinant human Meningioma Expressed Antigen 5 (MGEA5), also referred to as O-GlcNAcase (OGA) (Homo sapiens)
Construct: Full length OGA enzyme was purchased at OriGene (cat # TP322411); purchased OriGene TP322411
Sequence (O60502 1-916): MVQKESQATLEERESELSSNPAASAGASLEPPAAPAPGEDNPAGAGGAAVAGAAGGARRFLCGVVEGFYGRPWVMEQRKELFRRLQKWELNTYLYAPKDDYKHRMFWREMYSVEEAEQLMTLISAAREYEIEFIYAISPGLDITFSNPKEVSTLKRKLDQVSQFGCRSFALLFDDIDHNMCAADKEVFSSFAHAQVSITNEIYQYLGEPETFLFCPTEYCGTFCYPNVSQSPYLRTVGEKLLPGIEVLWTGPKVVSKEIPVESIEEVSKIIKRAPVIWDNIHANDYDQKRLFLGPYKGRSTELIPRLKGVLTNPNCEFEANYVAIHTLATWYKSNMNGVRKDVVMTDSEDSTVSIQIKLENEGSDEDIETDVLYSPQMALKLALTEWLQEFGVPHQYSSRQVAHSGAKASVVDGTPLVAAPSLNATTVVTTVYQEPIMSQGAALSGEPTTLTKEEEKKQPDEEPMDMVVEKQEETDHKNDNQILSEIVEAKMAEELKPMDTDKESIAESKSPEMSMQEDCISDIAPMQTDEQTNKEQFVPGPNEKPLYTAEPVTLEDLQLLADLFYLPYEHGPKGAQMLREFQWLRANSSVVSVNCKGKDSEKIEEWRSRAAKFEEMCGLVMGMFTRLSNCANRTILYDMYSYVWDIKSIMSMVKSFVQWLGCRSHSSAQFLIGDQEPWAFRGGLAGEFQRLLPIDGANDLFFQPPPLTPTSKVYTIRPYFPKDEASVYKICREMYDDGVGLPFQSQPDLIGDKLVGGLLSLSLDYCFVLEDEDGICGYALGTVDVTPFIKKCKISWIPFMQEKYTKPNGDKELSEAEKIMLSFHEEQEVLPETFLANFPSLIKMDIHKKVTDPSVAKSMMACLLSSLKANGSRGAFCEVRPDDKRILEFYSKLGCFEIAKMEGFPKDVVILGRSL
Experimental Details: OGA biochemical assay: inhibition of FM-GlcNAc hydrolysis, fluorescence; protocol A (10 nM OGA, 1 h) or protocol B (2 nM OGA, 6 h)
Measurement Parameters: Enzymatic protocol B (2 nM OGA, 6 h)
Reported Endpoint: Emax (%)

INSERT INTO assay_data (compound, reported_endpoint, assay_result) VALUES
  ('CC(=O)Nc1ncc(CN2CC[C@@H](Cc3cc(C)nc(C)c3)C2)s1', 'Emax', 102);

P. CC(=O)Nc1ncc(CN2CC[C@H](Cc3ccc(C)nc3C)C2)s1
Q. CC(=O)Nc1ncc(CN2CCC[C@H](Cc3cc(C)nc(C)c3)[C@@H]2C)s1 (single isomer, unassigned)
Incoming: Given P and Q , report the one with the higher recorded Emax. Please indicate the selected item by its label.
Outgoing: P
(P: 99.6%, Q: 52%)

* * *

Assayed Target: recombinant human Meningioma Expressed Antigen 5 (MGEA5), also referred to as O-GlcNAcase (OGA) (Homo sapiens)
Construct: Full length OGA enzyme was purchased at OriGene (cat # TP322411); purchased OriGene TP322411
Experimental Details: OGA biochemical assay: inhibition of FM-GlcNAc hydrolysis, fluorescence; protocol A (10 nM OGA, 1 h) or protocol B (2 nM OGA, 6 h)
Measurement Parameters: Enzymatic protocol B (2 nM OGA, 6 h)
From the text: The assay is based on the inhibition of the hydrolysis of fluorescein mono-3-D-N-Acetyl-Glucosamine (FM-GlcNAc) (Mariappa et al. 2015, Biochem J 470:255) by the recombinant human Meningioma Expressed Antigen 5 (MGEA5), also referred to as O-GlcNAcase (OGA). […] The fluorescence of the latter can be measured at excitation wavelength 485 nm and emission wavelength 538 nm. An increase in enzyme activity results in an increase in fluorescence signal. […]
Reported Endpoint: Emax (%)

INSERT INTO measurements (molecule, assay_result) VALUES
  ('CC(=O)Nc1ncc(CN2CCC[C@H](Cc3nc(C)cnc3C)C2)s1 [compound 128]', 102);

A. CC(=O)Nc1ncc(CN2CCC[C@@H](Cc3cc(C)nc(C)c3)[C@H]2C)s1 (racemic) [compound 169]
B. CC(=O)Nc1ncc(CN2CCC[C@H](Cc3cc(C)nc(C)c3)C2)n1C [compound 174]
Incoming: Given A and B , report the one with the higher recorded Emax. Please indicate the selected item by its label.
Outgoing: A
(A: 100%, B: 40.9%)

* * *

Assayed Target: recombinant human Meningioma Expressed Antigen 5 (MGEA5), also referred to as O-GlcNAcase (OGA) (Homo sapiens, UniProt O60502)
Construct: Full length OGA enzyme was purchased at OriGene (cat # TP322411); purchased OriGene TP322411
Experimental Details: OGA biochemical assay: inhibition of FM-GlcNAc hydrolysis, fluorescence; protocol A (10 nM OGA, 1 h) or protocol B (2 nM OGA, 6 h)
Measurement Parameters: Enzymatic protocol B (2 nM OGA, 6 h); read-out: Enzymatic hOGA; pIC50 (converted)
Reported Endpoint: IC50 (nM)

Examples with answers:
INSERT INTO measurements (compound, assay_result) VALUES
  ('CC(=O)Nc1ncc(CN2CCCC(N(C)c3cc(C)nc(C)c3)C2)s1 (centres unmarked) [compound 32]', 13.5),
  ('CC(=O)Nc1ncc(CN2CCCC(Oc3cc(C)nc(C)c3)C2)s1 (centres unmarked) [compound 14]', 9.12),
  ('Cc1cc([C@H]2CCCN([C@@H](C)c3ccc4sc(C)nc4c3)C2)cc(C)n1 [compound 117]', 12),
  ('CC(=O)Nc1ncc(C(C)N2CCCC(COc3cc(C)nc(C)c3)C2)s1 (racemic) [compound 133]', 3.89),
  ('CC(=O)Nc1ncc(CN2CC[C@H](Cc3cc(C)c(C)cn3)C2)s1 [compound 69]', 6.17);

A. CC(=O)Nc1ncc([C@@H](C)N2CCC[C@@H](COc3cc(C)nc(C)c3)C2)s1 (single isomer, unassigned) [compound 135]
B. CC(=O)Nc1ncc([C@@H](C)N2CCC[C@@H](COc3cc(C)nc(C)c3)C2)s1 (single isomer, unassigned) [compound 137]
C. CC(=O)Nc1ncc(S(=O)(=O)N2CCC[C@H](Cc3cc(C)nc(C)c3)C2)s1 [compound 33]
Incoming: // sort entries: IC50, high to low Write the labels, ordered according to the request.
Outgoing: A, C, B
(A: 178 nM, C: 72.4 nM, B: 0.955 nM)

A. CC(=O)Nc1ncc(CN2CC[C@H](Nc3cc(C)nc(C)c3)C2)s1 [compound 23]
B. CC(=O)Nc1ncc(CN2CCC(Cc3cnc(C(N)=O)cn3)C2)s1 (centres unmarked) [compound 105]
C. CC(=O)Nc1ncc(CN2CC[C@H](Cc3ccc(C)nc3C)C2)s1 [compound 71]
D. CC(=O)Nc1ncc(CN2CC[C@H](Cc3nc(C)ccc3C(F)(F)F)C2)s1 [compound 54]
Incoming: Which order do these items take when sorted by rising IC50? List them. Write the labels, ordered according to the request.
Outgoing: C, B, D, A
(C: 12 nM, B: 19.5 nM, D: 28.8 nM, A: 158 nM)

P. CC(=O)Nc1ncc(CN2CCCC(Cc3cc(C)nc(C)n3)C2)s1 (centres unmarked) [compound 24]
Q. CC(=O)Nc1ncc(CN2CCC[C@H](Cc3cc(F)ncc3C)C2)s1 [compound 122]
R. Cc1cc(CC2CCCN(C(C)c3nc4ccccc4[nH]3)C2)cc(C)n1 (racemic) [compound 149]
Incoming: // sort entries: IC50, high to low Write the labels, ordered according to the request.
Outgoing: R, P, Q
